Tested on: A549
protocol-details: Antiproliferative activity against human A549 cells assessed as cell growth inhibition incubated for 24 hrs by MTS assay
Type: functional, cell-based
assay-context: A549, 24 h
measured-quantity: pIC50
Just so you know, pIC50 here is -log10 of the concentration in molar units; reply with that number alone.

Q. Give the measured pIC50 of CNC(=O)Nc1ccc(-c2nc(N3CC4CCC(C3)O4)c3cnn(C4CCC5(CC4)OCCO5)c3n2)cc1 .
A. 6.99

====

assayed-target: Phosphatidylinositol 4,5-bisphosphate 3-kinase catalytic subunit gamma isoform (Homo sapiens, UniProt P48736)
Sequence (P48736 whole entry, canonical isoform): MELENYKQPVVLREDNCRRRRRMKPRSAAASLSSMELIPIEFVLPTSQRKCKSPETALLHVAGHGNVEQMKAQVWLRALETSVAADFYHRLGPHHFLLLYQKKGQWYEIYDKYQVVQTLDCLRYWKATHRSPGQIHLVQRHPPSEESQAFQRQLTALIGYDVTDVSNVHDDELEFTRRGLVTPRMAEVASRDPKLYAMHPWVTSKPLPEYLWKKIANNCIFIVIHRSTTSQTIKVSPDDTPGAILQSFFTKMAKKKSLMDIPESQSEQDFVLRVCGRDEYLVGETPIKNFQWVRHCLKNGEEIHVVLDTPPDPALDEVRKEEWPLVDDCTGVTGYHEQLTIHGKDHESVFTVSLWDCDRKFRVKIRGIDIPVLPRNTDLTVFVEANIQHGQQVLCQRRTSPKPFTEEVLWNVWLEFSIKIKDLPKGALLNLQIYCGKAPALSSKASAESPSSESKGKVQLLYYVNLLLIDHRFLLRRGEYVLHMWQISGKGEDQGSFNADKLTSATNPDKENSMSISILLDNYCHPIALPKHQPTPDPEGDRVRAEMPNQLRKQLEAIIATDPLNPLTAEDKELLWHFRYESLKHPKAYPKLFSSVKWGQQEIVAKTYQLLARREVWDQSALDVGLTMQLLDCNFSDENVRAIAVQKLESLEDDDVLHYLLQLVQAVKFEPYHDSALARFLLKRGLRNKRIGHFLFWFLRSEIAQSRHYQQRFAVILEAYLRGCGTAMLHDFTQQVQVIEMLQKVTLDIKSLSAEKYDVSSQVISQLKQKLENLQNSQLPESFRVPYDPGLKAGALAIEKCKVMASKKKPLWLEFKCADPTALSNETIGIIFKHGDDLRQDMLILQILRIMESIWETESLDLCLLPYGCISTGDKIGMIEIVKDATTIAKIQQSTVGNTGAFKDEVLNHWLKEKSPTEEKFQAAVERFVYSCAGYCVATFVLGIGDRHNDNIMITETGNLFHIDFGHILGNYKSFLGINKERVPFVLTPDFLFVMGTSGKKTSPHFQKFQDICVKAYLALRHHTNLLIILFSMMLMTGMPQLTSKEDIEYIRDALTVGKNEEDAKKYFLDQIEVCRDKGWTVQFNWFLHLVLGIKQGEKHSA
protocol-details: Inhibition of PI3Kgamma (unknown origin) using PIP2 as substrate measured after 15 to 30 mins by fluorescence polarization assay
pIC50: −log10 of the molar value.
measured-quantity: pIC50

Q. Give the measured pIC50 of CNC(=O)Nc1ccc(-c2nc(N3CC4CCC(C3)O4)c3cnn(C4CCC5(CC4)OCCO5)c3n2)cc1 .
A. < 5.00
